Test system: HEK-293T
Assay: Multiplex assay against HEK293T
Type: toxicity, cell-based
Conditions: human, 24 h, 1 µM, compound concentration 1 uM, replicate 1
REPORTED_PROPERTY: Population Hoechst High Intensity Objects (%)
Answers are plain numbers, in %.

What the record says about c1cn2cc(-c3ccc4cn[nH]c4c3)nc(Nc3ccc(N4CCOCC4)cc3)c2n1 [ENTOSPLETINIB] : Population Hoechst High Intensity Objects (%) is 15

Just so you know, measured Population Hoechst High Intensity Objects (%) for CN(C)C(=O)N[C@H]1CC[C@H](CCN2CCN(c3cccc(Cl)c3Cl)CC2)CC1.Cl [CARIPRAZINE HYDROCHLORIDE] came out at 11

Briefly, Population Hoechst High Intensity Objects (%) measured for `CN(C)C(=O)/C(C#N)=C/c1ccc(-c2nc3cnc4[nH]ccc4c3n2C2CCCCC2)o1` : 14

Sample CC(C)NCC(O)COc1ccc(CCOCC2CC2)cc1.Cl (stereo not drawn) [BETAXOLOL HYDROCHLORIDE] ; Population Hoechst High Intensity Objects (%) observed: 7

Form: molecule = Cc1nc(-c2cn3c(n2)-c2ccc(-c4cnn(C(C)(C)C(N)=O)c4)cc2OCC3)n(C(C)C)n1 [TASELISIB] ; Population Hoechst High Intensity Objects (%) = 17

What the record says about `C=CC(=O)Nc1ccc2ncnc(Nc3ccc(OCc4cccc(F)c4)c(Cl)c3)c2c1.Cc1ccc(S(=O)(=O)O)cc1` : Population Hoechst High Intensity Objects (%) is 15

Population Hoechst High Intensity Objects (%) reading for `OC1(c2ccc(Cl)cc2)CCN(Cc2c[nH]c3ccccc23)CC1` : 16

Moving on to another molecule below.
Memo: CN1CCC[C@@H]1CCO[C@](C)(c1ccccc1)c1ccc(Cl)cc1.O=C(O)/C=C/C(=O)O [CLEMASTINE FUMARATE] , reported Population Hoechst High Intensity Objects (%): 21
